System: NCI/ADR-RES ovarian
Test: NCI-60 one-dose screen, 48 h (100 = growth as untreated, 0 = no growth, -100 = all killed)
Details: 10 µM
The panel holds about 83,000 compounds, 20% with a hit somewhere; the sample as a whole holds those more often.
Mark true (1) for growth under -30%, false (0) if at or over.

structure_string=COc1cc(OC)c(S(=O)(=O)N(CCCl)CCCl)cc1C(=O)/C=C/c1ccc(C)cc1 classification="false (0)"
structure_string=CC1=C2C(=C[C@@](C)(COP(=O)(Oc3ccccc3)Oc3ccccc3)[C@@H]2O)C(=O)[C@@](C)(O)C12CC2 classification="true (1)"
structure_string=COc1cc2cc(C(=O)N3C[C@@H](CCl)c4c3cc(OC(=O)N3CCN(C)[C@@H]5CSSC[C@@H]53)c3ccccc43)[nH]c2c(OC)c1OC classification="false (0)"
structure_string=C#CCCCN(CCNc1ccnc2cc(Cl)ccc12)C(=O)CCC(=O)O[C@@H]1O[C@@H]2OC3(C)CC[C@H]4[C@H](C)CC[C@@H]([C@H]1C)[C@@]24OO3 classification="false (0)"
structure_string=COc1ccc(OC)c(/C=C/C(=O)c2nc3ccccc3n2Cc2ccc(F)cc2)c1 classification="true (1)"
structure_string=O=C(/C=C/c1ccc(Br)cc1)c1nc2ccccc2n1Cc1ccc(Br)cc1 classification="true (1)"
structure_string=COCCOCCOCCOc1ccc(-n2cc(-c3ccc(O[C@H]4O[C@@H]5OC6(C)CC[C@H]7[C@H](C)CC[C@@H]([C@H]4C)[C@@]57OO6)cc3)nn2)cc1 classification="false (0)"
